Data provenance is ChEMBL document CHEMBL1151600.

Assay target: GABA-A receptor; anion channel
Assay info: Inhibition of [3H]flunitrazepam [3H]FNZ) binding to GABA-A Benzodiazepine receptor of synaptosomal membranes from rat spinal cord
Assay type: tissue-based
Metric: pKi
Numbers only, as −log10 of the molar value.

input: Value lookup for pKi; key = O=c1cc(-c2cccc([N+](=O)[O-])c2)oc2ccc(Br)cc12
output: 7.90

###

Assay target: GABA-A receptor; anion channel
Assay info: Inhibition of [3H]zolpidem binding to GABA-A Benzodiazepine receptor of synaptosomal membranes from rat cerebellum
Type: tissue-based
Metric: Ki
Respond with the figure and its unit, in that order.

input: Which Ki value belongs to O=c1cc(-c2cccc([N+](=O)[O-])c2)oc2ccc(Br)cc12 ?
output: 3 nM

###

Assay target: GABA-A receptor; anion channel
Assay info: Inhibition of [3H]flunitrazepam [3H]FNZ) binding to GABA-A Benzodiazepine receptor of synaptosomal membranes from rat cerebral cortex
Format: tissue-based
Metric: Ki (nM)
Give bare numbers, in nM.

- Compound string: "O=c1cc(-c2ccc([N+](=O)[O-])cc2)oc2ccc(Br)cc12"
  Ki (nM): 220

Let us move to another entry and its Ki.
input: Notebook entry, GABA-A receptor; anion channel assay: Ki of O=c1cc(-c2cccc([N+](=O)[O-])c2)oc2ccc(Br)cc12 = ?
output: 1.2

###

Assay target: GABA-A receptor; anion channel
Assay info: Inhibition of [3H]flunitrazepam [3H]FNZ) binding to GABA-A Benzodiazepine receptor of synaptosomal membranes from rat cerebellum
Format: tissue-based
Metric: pKi
One number for each entry, as −log10 of the molar value.

input: // lookup pKi for O=c1cc(-c2cccc([N+](=O)[O-])c2)oc2ccc(Br)cc12
output: 8.44
